# TEST SYSTEM: Calcium-dependent protein kinase 4 (Plasmodium falciparum (isolate 3D7))
# ASSAY OVERVIEW: PfCDPK4 kinase inhibitors, biochemical, TCAMS library (AID 1159588)
# CONDITION SET: recombinant PfCDPK4, Kinase-Glo ATP depletion luminescence
Potency and affinity values are given separately. Active and inactive are the calls of the source. Cut-off not given; nearly all actives show IC50 up to about 0.91 µM.
MEASURE NAME: outcome

[[record]]
sample_smiles = "Cn1cc(Br)c(-c2cccc(Nc3ccnc4cc(-c5nccs5)ccc34)c2)n1"
observed_value = "inactive"

[[record]]
sample_smiles = "O=C(Nc1ccc(-c2ccccc2)cc1)Nc1cccc(Cn2nc(Cl)c(N3CCCNCC3)cc2=O)c1"
observed_value = "inactive"

[[record]]
sample_smiles = "O=C(Nc1ccccc1-c1nc2ccccc2s1)C(Cl)(Cl)Cl"
observed_value = "inactive"

[[record]]
sample_smiles = "CC1(C)N=C(N)N=C(N)N1c1ccc(I)cc1"
observed_value = "inactive"

[[record]]
sample_smiles = "O=C(Nc1ccsc1C(=O)NC1CCCCC1)c1ccc(F)cc1"
observed_value = "inactive"


Qu. Report measured outcome; entry is `COc1ccc2nccc([C@@H](O)CN3CCC(NCc4nc5c([N+](=O)[O-])cccc5[nH]4)CC3)c2c1`
Ans. inactive

Qu. Quote outcome reported for `COc1ccc(CNCc2ccsc2)cc1-c1ccc(S(=O)(=O)NCCN2CCCC2)s1` please.
Ans. inactive

----------
# ASSAY OVERVIEW: inhibition of 3D7 malaria parasite growth – strain 3D7 (AID 2306);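 further: 0% = DMSO wells and 100% = chloroquine plus artemisinin control wells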
# CONDITION SET: P. falciparum 3D7 erythrocytic growth, LDH absorbance, 72 h; at 2 µM; stronger effect = higher value
The entries below are paired with their reported growth inhibition.
Write down the numeric answer in % and omit the unit.

[[record]]
compound = "Cn1c(NC(=O)CCCCCNC(=O)c2ccc(O)c(-c3ccc(Cl)c(Cl)c3)c2)nc2ccccc21"
uom = "%"
observed_value = 100

[[record]]
compound = "COc1ccc(C2CCN(C#N)C2)cc1OC1CCCC1 (stereo not given)"
uom = "%"
observed_value = 102

[[record]]
compound = "c1ccc(CCNCc2cccc(-c3ccc(CNc4ccc5ncccc5c4)cc3)c2)cc1"
uom = "%"
observed_value = 93

[[record]]
compound = "CC(C)C[C@@H](/C=N/NC(N)=O)NC(=O)[C@H](CC(C)C)NC(=O)[C@H](CC(C)C)NC(=O)OCc1ccccc1"
uom = "%"
observed_value = 100


Now consider the entry below.
Qu. Supply reported growth inhibition belonging to this compound: `C[C@@H]1CN(c2cnn(Cc3ccc(NC(=O)Nc4ccc(-c5ccccc5)cc4)cc3)c(=O)c2Cl)C[C@H](C)N1`
Ans. 100

----------
# TEST SYSTEM: L-lactate dehydrogenase (Plasmodium falciparum (isolate CDC / Honduras))
# ASSAY OVERVIEW: PfLDH activity inhibition – cell lysate, 3D7 strain, counter-screen for P. falciparum growth inhibition project (AID 2304);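 further: 0% = vehicle and 100% = reference inhibitor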
# CONDITION SET: P. falciparum 3D7 crude extract, LDH APAD/NBT absorbance; at 2 µM; stronger effect = higher value
MEASURE NAME: inhibition (%)
Please state the figure in %; there is no need to write the unit.

The following compounds have reported results that may help.
[[record]]
compound = "CCOC(=O)CN(c1ccc(Br)cc1OCCOc1cc(Br)ccc1N(CC(=O)OCC)C(C)C(=O)OCC)C(C)C(=O)OCC (centres undefined)"
observed_value = 6

[[record]]
compound = "CC(=O)Nc1nc(C(=O)Nc2cccc(-c3cccc(-c4nc5ccccc5[nH]4)c3)c2)cs1"
observed_value = 0

[[record]]
compound = "NCc1ccc(-c2ccccc2CNC2CCN(Cc3ccccc3)CC2)cc1"
observed_value = -2

[[record]]
compound = "COc1ccc(C(=O)C2CCN(CCCCNC(=O)c3ccc(NC(=O)c4ccc(Cl)cc4)cc3)CC2)c(OC)c1"
observed_value = 4

[[record]]
compound = "O=C(Nc1cccc(Cl)c1Cl)N[C@H]1CCN(CCCCCNC(=O)[C@@H]2C[C@H]2c2ccc(Cl)c(Cl)c2)C1"
observed_value = -2

[[record]]
compound = "O=C(c1cccc(Cl)c1)N1CCN(c2ccc([N+](=O)[O-])c(NC3CC3)c2)CC1"
observed_value = 4

[[record]]
compound = "CC(C)(C)C(=O)Nc1ccc(C(=O)Nc2cccc(-c3nc4ccccc4[nH]3)c2)cc1"
observed_value = 1

[[record]]
compound = "CCc1ccc(C2CCN(CCCCNC(=O)c3ccc(NC(=O)c4ccc(Cl)cc4)cc3)CC2)cc1"
observed_value = -3

[[record]]
compound = "CN(C(=O)c1ccc(Br)cc1)c1ccccc1[N+](=O)[O-]"
observed_value = 2

[[record]]
compound = "CCOC(=O)c1ccc(NC(=O)Nc2ccc(-c3ccc(-c4nc5ccccc5[nH]4)cc3)cc2)cc1"
observed_value = 0


Qu. Please report the measured inhibition for `CCc1c[nH]c2c(N3CCCC3=O)cc(C(=O)N[C@@H](Cc3ccccc3)[C@H](O)CNC(C)(C)c3cccc(OC)c3)cc12` tested on L-lactate dehydrogenase (Plasmodium falciparum (isolate CDC / Honduras)).
Ans. 2

Qu. // output inhibition; input `COc1cc2nc(NCC3CCCCC3)nc(NCc3ccccc3)c2cc1OC` ; system L-lactate dehydrogenase (Plasmodium falciparum (isolate CDC / Honduras))
Ans. 7

----------
# ASSAY OVERVIEW: antimalarial activity against Dd2 strain (AID 2302);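 further: 0% = DMSO untreated growth and 100% = chloroquine plus artemisinin killed control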
# CONDITION SET: P. falciparum Dd2 in RBCs, LDH growth readout, 72 h; at 2 µM
The source made the active and inactive calls.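 How the source made its calls: active means growth inhibition above 50% at the single 2 µM test dose, taken to imply half-maximal potency below 2 µM; inactive means the rest.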
Outcomes you can answer with include only these: active, inactive

Study these solved cases before continuing.
[[record]]
compound = "Cc1c(Cl)ccc2sc(N3CCN(C(=O)c4ccc([N+](=O)[O-])o4)CC3)nc12"
label = "active"

[[record]]
compound = "O=C(COc1ccccc1)NC1CCN(c2ccnc3cc(Cl)ccc23)C1 (stereo not given)"
label = "inactive"

[[record]]
compound = "COc1cc(OC)c(NC(=O)Nc2ccnc3ccccc23)cc1Cl"
label = "inactive"

[[record]]
compound = "Cn1cnc2c(Nc3ccncc3)nc(-c3ccc4ccccc4c3)nc21"
label = "active"

[[record]]
compound = "Cc1[nH]c(C)c(-c2ccc(Oc3ccc(Cl)cc3Cl)cc2)c(=O)c1Br"
label = "active"

[[record]]
compound = "CC(C)Cc1ccc(N2CCN(CCCCNC(=O)c3ccc(NC(=O)c4ccc(Cl)c(Cl)c4)cc3)CC2)cc1"
label = "inactive"

[[record]]
compound = "Cc1onc(-c2ccccc2Cl)c1C(=O)Nc1cc(Cl)c(Cl)cc1Cl"
label = "active"

[[record]]
compound = "COc1ccc(N2CCN(CCCCNC(=O)c3ccc(NC(=O)c4cc(C(F)(F)F)cc(C(F)(F)F)c4)cc3)CC2)cc1OC"
label = "active"


Qu. Assay result, entry `CN1CCN(Cc2cccc(-c3ccc4c(Nc5ccc(F)cc5Cl)ccnc4c3)c2)CC1` — outcome?
Ans. active

Qu. What outcome does the record of this test show for `Cc1cccc2[nH]c(-c3cccc(-c4cccc(NC(=O)c5cn(C)c(=O)n5C)c4)c3)nc12` ?
Ans. active

Qu. Could you kindly confirm the outcome this assay logged for `N#Cc1cccc(C(=O)Nc2ccc(-c3ccc(CN4CCCC4)cc3)cc2)c1` ?
Ans. inactive

Qu. Short answer needed: outcome of this test for `CN(C)CCCOc1cccc(NC(=O)Nc2ccc(Cl)c(Cl)c2)c1` ?
Ans. inactive

Qu. Outcome logged for `COc1cc(NC(=O)c2ccc3c(=O)n(Cc4ccccc4)c(=S)[nH]c3c2)cc(OC)c1OC` in this assay:
Ans. inactive

Qu. What did the test return for `O=S(=O)(Nc1cccc(CCN2CCC(N3CCCCC3)CC2)c1)c1cccc2ccccc12` ?
Ans. active

Qu. Each compound tested received a call. Report the one for `COCCOc1nc(N)nc2ncc(Cc3cc(OC)ccc3OC)c(C)c12` .
Ans. inactive

Qu. Status in this test for `CN1CCN(c2cc3c(Nc4ccc5c(cnn5Cc5ccccc5)c4)ncnc3cn2)CC1` ?
Ans. inactive

Qu. Hi team, can someone confirm the assay call for `COCCCN=C(N)c1ccc(NC(=O)c2ccc(C(=O)Nc3ccc(C(N)=NCCCOC)cc3)cc2)cc1` ?
Ans. active

Qu. Please state the recorded outcome for this compound: `COc1ccc(CNCc2ccc(-c3ccc(-c4nc5ccccc5[nH]4)cc3)cc2)cc1`
Ans. active

Qu. Name the outcome recorded for `CN1CCN(Cc2ccc(-c3cc4c(Nc5ccc(OCc6cccc(F)c6)c(Cl)c5)ncnc4s3)[nH]2)CC1` in the assay.
Ans. active

Qu. Can you look up the reported call for `c1ccc2c(Nc3ccc(OCCOCCOc4ccc(Nc5c6ccccc6nc6ccccc56)cc4)cc3)c3ccccc3nc2c1` for me?
Ans. active

----------
# ASSAY OVERVIEW: antimalarial activity against Dd2 strain (AID 2302);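 further: 0% = DMSO untreated growth and 100% = chloroquine plus artemisinin killed control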
# CONDITION SET: P. falciparum Dd2 in RBCs, LDH growth readout, 72 h; at 2 µM; stronger effect = higher value
Param threshold (40%) applies to growth inhibition; output T when value >= threshold, F when value < threshold.

Solved cases below.
[[record]]
sample_smiles = "Cc1cc(F)ccc1Oc1nc(Nc2ccc(N3CCOCC3)c(F)c2)nc2c1S(=O)(=O)CCC2"
label = "T"

[[record]]
sample_smiles = "COc1cccc(C2CCN(CCN3CCC(NC(=O)c4ccc(-c5ccc(Cl)cc5)cc4)CC3)CC2)c1"
label = "T"


Qu. Tell me whether growth inhibition is at least 40% here: `COc1cc(Nc2nc(N)c3cc(OC)c(OC)cc3n2)cc(OC)c1`
Ans. T

Qu. Quick check, growth inhibition >= 40%? `COc1ccc(-c2cc(C(=O)N3CCc4ccccc43)c3ccccc3n2)cc1OC`
Ans. T

Qu. Could you please find out whether `O=C(/C=C/c1ccc(Cl)c(Cl)c1)NCCCCCN1CCCN(C(=S)Nc2ccc(Cl)c(Cl)c2)CC1` has growth inhibition that meets 40% or exceeds it?
Ans. F
